- Protocol Details: probe aShh binding to arrayed compounds – biochemical, biotinylated probe, 635/667 nm fluorescence, primary screen (AID 1114);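 further: probe is biotin-labelled aShh protein from a stem cell growth factor screen; measures binding of labelled protein to compounds printed on the slide; score merges feature fluorescence at 667 nm with signal-to-noise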
- Run Conditions: small-molecule microarray, higher = more signal
Assignment: determine reported composite z-score for the given molecules.
Answers are plain numbers.

INSERT INTO measurements (molecule, readout_label, test_value) VALUES
  ('O=C1O[C@@H](c2ccccc2)[C@@H](c2ccccc2)N2[C@@H](c3ccc(OCCO)cc3)[C@]3(C(=O)Nc4ccc(C#CCCO)cc43)[C@@H](C(=O)NC[C@H](O)c3ccccc3)[C@H]12', 'composite z-score', 0.493),
  ('C#CCN(C/C=C/c1ccccc1)[C@H](CO)c1ccccc1', 'composite z-score', -0.262),
  ('O=C1C2C=CC(C(O)COCc3ccccc3)N(Nc3ccc([N+](=O)[O-])cc3)C2C(=O)N1c1ccccc1 (configuration not stated)', 'composite z-score', 0.213),
  ('COc1cc(OC)c(C(O)C2C=CC3C(=O)NC(=O)C3N2Nc2ccccn2)cc1Br (configuration not stated)', 'composite z-score', -0.0769),
  ('CCOC(=O)C[C@H]1[C@H](OC(=O)c2ccc(-c3ccccc3)cc2)[C@@H](NC(=O)c2ccccc2)c2cc(OCCCO)ccc2N1C(=O)c1ccc2ccccc2n1', 'composite z-score', -0.0011),
  ('C=CCC(OC(C)=O)[C@@H]1[C@@H](N(Cc2ccc(-c3cccc(C(F)(F)F)c3)o2)C(=O)c2cccc3ccccc23)c2cc(OCCCO)ccc2N1C(=O)Cc1ccc2ccccc2c1 (some centres not stated)', 'composite z-score', 0.123);

Now consider a different molecule.
Query string: So what's the measured composite z-score for this one? C=CCC(OC(C)=O)[C@@H]1[C@@H](N(Cc2cc3ccccc3o2)C(=O)Cc2ccc(OC)cc2)c2cc(OCCCO)ccc2N1C(=O)c1ccc2ccccc2c1 (some centres not stated)
Result string: 0.0062
